# System: full length human vWF (SEQ ID NO 7)
# Experiment Description: dot blot KD determination and extent of binding, full length human vWF;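 note: dot blot binding of aptamers to full length human vWF across a protein titration, incubated 30 minutes at room temperature in 1x DPBS with BSA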
# Conditions: Phase 3 modification; full length human vWF, dot blot, 8 point protein titration; read-out: KD
Oligonucleotides are written 5' to 3', each unit as a sugar letter and its base; * is a phosphorothioate linkage, no mark a phosphodiester; rarer units and linkages stand in square brackets, end groups in braces. Plain capitals give the bases only. [invdT] = inverted (3'-3') thymidine; d = 2'-deoxy (DNA); m = 2'-O-methyl
Property Name: Kd

substance="ARC1371: ARC1361 with single phosphorothioate phosphate backbone modification (mGmCmGmUdGdCdAmGmUmGmCmCmUmUmCmGmGmCdCmGdTmGdC*dGdGdTmGmCdCmUdCdCmGmUdCmAmCmGmC[invdT])" result="8.4 nM"
substance="ARC1366: ARC1361 with single phosphorothioate phosphate backbone modification (mGmCmGmUdGdCdAmGmUmGmCmCmUmUmCmGmGmC*dCmGdTmGdCdGdGdTmGmCdCmUdCdCmGmUdCmAmCmGmC[invdT]; aptamer)" result="15.5 nM"
substance="ARC1367: ARC1361 with single phosphorothioate phosphate backbone modification (mGmCmGmUdGdCdAmGmUmGmCmCmUmUmCmGmGmCdC*mGdTmGdCdGdGdTmGmCdCmUdCdCmGmUdCmAmCmGmC[invdT]; aptamer)" result="13.9 nM"
substance="ARC1379: ARC1361 with single phosphorothioate phosphate backbone modification (mGmCmGmUdGdCdAmGmUmGmCmCmUmUmCmGmGmCdCmGdTmGdCdGdGdTmGmCdCmUdCdC*mGmUdCmAmCmGmC[invdT]; aptamer)" result="10.4 nM"
